system: 786-0 renal; assay: NCI-60 one-dose screen, 48 h (100 = growth as untreated, 0 = no growth, -100 = all killed); conditions: 10 µM unless noted
Compounds without any hit were thinned out: in the full panel of roughly 83,000, 20% have a hit.
# growth values compiled below

{"columns": ["Molecule", "growth (%)"],
 "data": [
  ["CN(C)c1oc(C2OC2c2ccccc2)nc1C#N (stereo not given)", 102],
  ["COc1ccc(-c2nc(/C=N/Nc3cc(C)nc4ccc(Cl)cc34)c(C)o2)cc1", -87.5],
  ["NC1N=C(SCC(=O)N2CCN(c3cc4c(cc3F)c(=O)c(C(=O)O)cn4C3CC3)CC2)NC(=O)/C1=C/c1ccc(Cl)cc1 (stereo not given)", 103],
  ["COc1ccc(-c2c(N)n[nH]c2-c2cc3c(c(OC)c2OC)OCO3)cc1", 105],
  ["COc1cc(Nc2ncccc2C(=O)NCc2cn(Cc3cccc(Oc4ccccc4)c3)nn2)cc(OC)c1", 51],
  ["c1ccc(-c2nnc(-c3ccccn3)s2)nc1", 78.9],
  ["Cc1cc(C2=NNC(=O)Cc3cc4c(cc32)OCCO4)cc(C)c1N", 32.5],
  ["CC(C)CSc1nc(NN)c(C#N)c(-c2ccccc2)n1", 98.4],
  ["CCOC(=O)CC(=O)OC", 101],
  ["CCn1c2ccccc2c2cc(NC(=O)Nc3ccc([N+](=O)[O-])cc3C)ccc21", 38.9]
]}
